Test: melting temperature; fluorescence melt of hairpins on a sequencing array, two-state fit, raised by 9.35 °C to match UV melts
Settings: sodium 0.088 M
Reported Tm is given for each of the following sequences.
Report the figure in °C without appending any unit label.

stdin: Determine from records and report Tm for GCCCCCGAAAGGGTTGGC ((((((....)))..)))
stdout: 52.6

stdin: Using the record for GTTCACGAAAGTGCAAC ((((((....))).))) , state its measured Tm.
stdout: 37.8

stdin: Retrieve Tm measured for GGTTGCCCGAAAGGGACC (((..(((....)))))) and print it.
stdout: 37.9

***
stdin: Give reported Tm value for GATCGGGTTCCCGATC ((((((....))))))
stdout: 62.8

stdin: Identify measured Tm corresponding to GGCCTGCGAAAGCATGCC (((.(((....))).)))
stdout: 58.4

stdin: Return value of Tm for input GATCGAGTAATCGATC ((((((....)))))) , no commentary.
stdout: 57.4

Source: the array DNA melting data of Ke et al. (doi:10.1101/2024.01.08.574731)
